# subject_of_test: T1, human recombinant HER4 Extracellular Domain (HER4 ECD) (human, UniProt Q15303 26-651)
# T1 sequence: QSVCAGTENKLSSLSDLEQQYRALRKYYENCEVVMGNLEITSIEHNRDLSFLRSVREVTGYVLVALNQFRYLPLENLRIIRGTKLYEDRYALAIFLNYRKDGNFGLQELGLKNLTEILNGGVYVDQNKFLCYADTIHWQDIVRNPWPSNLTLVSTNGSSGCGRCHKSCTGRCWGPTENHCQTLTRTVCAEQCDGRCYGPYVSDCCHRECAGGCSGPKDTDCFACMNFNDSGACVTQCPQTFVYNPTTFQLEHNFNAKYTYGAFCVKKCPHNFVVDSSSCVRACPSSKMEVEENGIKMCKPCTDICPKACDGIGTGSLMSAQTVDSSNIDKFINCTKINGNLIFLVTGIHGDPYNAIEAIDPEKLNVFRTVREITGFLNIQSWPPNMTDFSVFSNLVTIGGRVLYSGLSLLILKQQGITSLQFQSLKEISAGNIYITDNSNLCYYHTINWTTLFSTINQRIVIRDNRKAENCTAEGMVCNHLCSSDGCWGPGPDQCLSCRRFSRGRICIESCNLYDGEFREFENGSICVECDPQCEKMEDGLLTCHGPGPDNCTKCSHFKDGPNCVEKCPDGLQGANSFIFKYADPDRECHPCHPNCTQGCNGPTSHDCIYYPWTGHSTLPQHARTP
# method_notes: ELISA, antigen coated, hybridoma supernatant
outcome_measure: binding result

binder	reported_result
anti-HER3 antibody M-08-11 (antibody, V domains shown, mouse monoclonal antibody from hybridoma, tested as hybridoma supernatant or as antibody; also called M-011) VH: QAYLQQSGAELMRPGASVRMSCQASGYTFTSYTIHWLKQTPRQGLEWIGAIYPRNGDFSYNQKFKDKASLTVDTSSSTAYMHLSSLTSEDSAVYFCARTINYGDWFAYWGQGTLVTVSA VL: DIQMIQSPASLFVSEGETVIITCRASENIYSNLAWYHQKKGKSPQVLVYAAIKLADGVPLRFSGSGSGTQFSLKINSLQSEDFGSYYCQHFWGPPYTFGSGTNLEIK	no binding
anti-HER3 antibody M-46-01 (antibody, V domains shown, mouse hybridoma clone) VH: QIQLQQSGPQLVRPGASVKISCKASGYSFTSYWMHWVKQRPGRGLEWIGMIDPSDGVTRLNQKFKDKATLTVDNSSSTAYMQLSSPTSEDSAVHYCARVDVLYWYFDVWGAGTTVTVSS VL: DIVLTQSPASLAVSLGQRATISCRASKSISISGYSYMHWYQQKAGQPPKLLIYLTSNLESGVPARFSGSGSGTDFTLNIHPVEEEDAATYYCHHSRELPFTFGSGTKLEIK	no binding
anti-HER3 antibody M-17-12 (antibody, V domains shown, mouse hybridoma clone; VH and VL stated identical to those of M-17-02) VH: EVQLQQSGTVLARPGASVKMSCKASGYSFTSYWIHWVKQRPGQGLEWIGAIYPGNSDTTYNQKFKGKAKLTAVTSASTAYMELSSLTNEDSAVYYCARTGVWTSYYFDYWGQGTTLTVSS VL: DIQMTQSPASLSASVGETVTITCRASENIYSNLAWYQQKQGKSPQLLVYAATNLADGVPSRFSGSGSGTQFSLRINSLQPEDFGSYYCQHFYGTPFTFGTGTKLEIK	no binding
